- System Name: p110α (PI3Kα) (Homo sapiens)
- Sequence (P42336 whole entry): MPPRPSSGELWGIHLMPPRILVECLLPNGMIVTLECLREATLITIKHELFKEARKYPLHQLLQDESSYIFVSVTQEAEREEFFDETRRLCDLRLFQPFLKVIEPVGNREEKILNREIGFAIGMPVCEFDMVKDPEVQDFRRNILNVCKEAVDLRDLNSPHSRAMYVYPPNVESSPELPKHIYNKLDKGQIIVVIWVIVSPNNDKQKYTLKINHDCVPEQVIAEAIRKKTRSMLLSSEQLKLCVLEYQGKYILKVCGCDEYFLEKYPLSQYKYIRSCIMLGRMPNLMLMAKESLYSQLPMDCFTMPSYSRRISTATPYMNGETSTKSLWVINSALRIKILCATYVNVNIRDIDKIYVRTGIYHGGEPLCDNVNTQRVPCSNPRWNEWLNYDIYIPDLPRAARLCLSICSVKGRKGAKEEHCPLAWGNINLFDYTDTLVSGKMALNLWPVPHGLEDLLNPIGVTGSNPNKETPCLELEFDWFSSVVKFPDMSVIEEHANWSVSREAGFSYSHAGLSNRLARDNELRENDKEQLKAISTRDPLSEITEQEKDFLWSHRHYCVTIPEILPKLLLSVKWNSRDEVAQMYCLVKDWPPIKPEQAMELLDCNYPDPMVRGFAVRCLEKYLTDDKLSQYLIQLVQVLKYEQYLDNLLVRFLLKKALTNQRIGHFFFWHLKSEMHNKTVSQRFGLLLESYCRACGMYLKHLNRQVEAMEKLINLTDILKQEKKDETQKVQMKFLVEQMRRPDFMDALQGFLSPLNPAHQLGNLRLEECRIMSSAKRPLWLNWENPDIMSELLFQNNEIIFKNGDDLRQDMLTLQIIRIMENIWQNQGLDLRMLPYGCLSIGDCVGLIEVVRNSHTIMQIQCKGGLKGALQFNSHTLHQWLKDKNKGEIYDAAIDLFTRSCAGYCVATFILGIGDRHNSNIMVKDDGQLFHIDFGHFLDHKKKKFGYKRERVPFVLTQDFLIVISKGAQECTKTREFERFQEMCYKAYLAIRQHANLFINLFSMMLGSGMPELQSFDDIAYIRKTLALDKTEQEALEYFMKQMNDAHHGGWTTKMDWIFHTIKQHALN
- Sequence (P27986 whole entry partner): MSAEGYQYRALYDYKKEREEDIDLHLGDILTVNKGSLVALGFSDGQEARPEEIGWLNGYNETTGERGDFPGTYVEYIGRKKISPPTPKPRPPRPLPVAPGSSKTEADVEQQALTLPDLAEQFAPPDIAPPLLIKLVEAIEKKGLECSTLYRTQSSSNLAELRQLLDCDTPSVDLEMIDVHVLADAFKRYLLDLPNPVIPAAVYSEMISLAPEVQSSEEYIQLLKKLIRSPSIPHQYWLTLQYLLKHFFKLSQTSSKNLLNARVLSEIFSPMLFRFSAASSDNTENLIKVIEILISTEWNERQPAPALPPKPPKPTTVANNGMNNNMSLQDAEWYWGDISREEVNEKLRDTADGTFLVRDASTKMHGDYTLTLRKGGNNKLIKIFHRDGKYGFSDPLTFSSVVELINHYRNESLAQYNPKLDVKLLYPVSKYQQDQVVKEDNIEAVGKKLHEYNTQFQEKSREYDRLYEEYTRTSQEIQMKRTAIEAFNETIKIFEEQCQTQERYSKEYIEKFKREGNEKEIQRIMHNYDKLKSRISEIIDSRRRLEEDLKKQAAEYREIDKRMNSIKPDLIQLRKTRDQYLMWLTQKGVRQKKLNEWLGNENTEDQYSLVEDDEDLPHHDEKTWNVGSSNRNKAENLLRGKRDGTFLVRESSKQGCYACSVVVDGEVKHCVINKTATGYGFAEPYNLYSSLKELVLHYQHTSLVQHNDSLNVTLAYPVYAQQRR
- Protocol Summary: LanthaScreen determination of kinetic constants (kinact, Ki) for p110α;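 further: covalent inhibition constants for p110α come from LanthaScreen data, fitted globally by numerical integration in KinTek Global Kinetic Explorer software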
- Type: binding
Endpoint: kinact/KI (M⁻¹ s⁻¹)
Report the value in M⁻¹ s⁻¹ with no unit label.

| Compound | Result Unit | kinact/KI |
| --- | --- | --- |
| C=CC(=O)N1CCC(CCCC(=O)N2CCN(c3nc(-c4cnc(N)nc4C(F)F)nc(N4CCOCC4)n3)CC2)CC1 [Compound 47] | M⁻¹ s⁻¹ | 70300 |

Checklist item: kinact/KI tested on p110α (PI3Kα) (Homo sapiens), entry C=CC(=O)N1CC(C(=O)N(C)CC(=O)N2CCN(c3nc(-c4cnc(N)nc4C(F)F)nc(N4CCOCC4)n3)CC2)C1 [Compound 33] , value? 1.17e+06

Then C=CC(=O)N1CC[C@@H](C(=O)NCC(=O)N2CCN(c3nc(-c4cnc(N)nc4C(F)F)nc(N4CCOCC4)n3)CC2)C1 [Compound 25] ? 961000

Follow-up item: C=CC(=O)N1CCC[C@@H](C(=O)N(C)CC(=O)N2CCN(c3nc(-c4cnc(N)nc4C(F)F)nc(N4CCOCC4)n3)CC2)C1 [Compound 18] 711000

Repeat with N#C/C(=C/C1CC1)C(=O)N1CCC[C@@H](COCC(=O)N2CCN(c3nc(-c4cnc(N)nc4C(F)F)nc(N4CCOCC4)n3)CC2)C1 [Compound 8] 3.96e+06

And then C=CC(=O)N1CCC[C@@H](OCCC(=O)N2CCN(c3nc(-c4cnc(N)nc4C(F)F)nc(N4CCOC[C@@H]4C)n3)CC2)C1 [Compound 5] , what is it? 595000

Queued: C=CC(=O)N1CCC[C@@H](COCC(=O)N2CCN(c3nc(-c4cnc(N)nc4C(F)F)nc(N4CCOC[C@@H]4C)n3)CC2)C1 [Compound 1] 156000

Source listed as patent US20240208957A1.
